Listing: minimal inhibitory concentration (MIC) K. pneumoniae AR-0003 of selected compounds
# Test system: K. pneumoniae AR-0003
# assayInfo: Broth microdilution MIC, K. pneumoniae AR-0003
# Type: cell-based, Klebsiella pneumoniae
# conditionDescription: KPC-3; CAMHB
observationType: minimal inhibitory concentration (MIC) K. pneumoniae AR-0003

1. O=C(O)CCN1CCC(=O)c2ccc(O)cc21 ... >64 mg/L
2. O=C(O)CCN(CCC(=O)O)c1cccc(O)c1 ... >64 mg/L
3. COc1cc(C=NNC(=O)CCN(CCC(=O)NN=Cc2cc(OC)c(OC)c(OC)c2)c2cccc(O)c2)cc(OC)c1OC ... >64 mg/L
4. CC(C)=NNC(=O)CCN(CCC(=O)NN=C(C)C)c1cccc(O)c1 ... >64 mg/L
5. NNC(=O)CCN(CCC(=O)NN)c1cccc(O)c1 ... >64 mg/L
6. O=C(CCN(CCC(=O)N/N=C/c1ccsc1)c1cccc(O)c1)N/N=C/c1ccsc1 ... >64 mg/L
7. O=C(CCN(CCC(=O)NN=Cc1ccccc1)c1cccc(O)c1)NN=Cc1ccccc1 ... >64 mg/L

----------
# System: E. faecalis AR-0671
# assayInfo: Broth microdilution MIC, E. faecalis AR-0671
# Assay type: cell-based, Enterococcus faecalis
# conditionDescription: Enterococcus faecalis, AR0671, read-out: minimal inhibitory concentration (MIC) E. faecalis AR-0671
Counter-ions that a name gives are not always drawn.
observationType: MIC (µg/mL)

1. O=C(CCN(CCC(=O)NN=Cc1ccc([N+](=O)[O-])s1)c1cccc(O)c1)NN=Cc1ccc([N+](=O)[O-])s1 ... 4
2. CN[C@H](CC(C)C)C(=O)N[C@H]1C(=O)N[C@@H](CC(N)=O)C(=O)N[C@H]2C(=O)N[C@H]3C(=O)N[C@H](C(=O)N[C@H](C(=O)O)c4cc(O)cc(O)c4-c4cc3ccc4O)[C@H](O)c3ccc(c(Cl)c3)Oc3cc2cc(c3O[C@@H]2O[C@H](CO)[C@@H](O)[C@H](O)[C@H]2O[C@H]2C[C@](C)(N)[C@H](O)[C@H](C)O2)Oc2ccc(cc2Cl)[C@H]1O [Vancomycin, Vancomycin hydrochloride, reference compound] ... 4
3. O=C(CCN(CCC(=O)NN=Cc1ccc([N+](=O)[O-])cc1)c1cccc(O)c1)NN=Cc1ccc([N+](=O)[O-])cc1 ... 16

----------
# Test system: FaDu cells
# assayInfo: MTT dose-response IC50, FaDu cells
# Format: cell-based
# conditionDescription: 0–100 µM, 24 h
observationType: IC50

1) N.N.[Cl][Pt][Cl] [CP, Cisplatin, reference compound] ... 16.3 µM

----------
# Tested on: FaDu cells
# assayInfo: MTT cell viability at fixed 100 µM, FaDu cells
# Format: cell-based
# conditionDescription: 24 h, described in words (Figure 2)
observationType: post-treatment viability (MTT assay)

1) COC(=O)CCN(CCC(=O)OC)c1cccc(O)c1 ... minimal cytotoxicity
2) Cc1ccc(C)n1NC(=O)CCN(CCC(=O)Nn1c(C)ccc1C)c1cccc(O)c1 ... reduced viability
3) Cc1cc(C)n(C(=O)CCN(CCC(=O)n2nc(C)cc2C)c2cccc(O)c2)n1 ... reduced viability
4) O=C(O)CCN(CCC(=O)O)c1cccc(O)c1 ... minimal cytotoxicity
